Tested on: HT29 cells
Experiment: cells
Settings: Homo sapiens, HT-29
value_kind: IC50 (nM)
Numbers only, in nM.

Q: Query (molecule): O=c1[nH]cc(F)c(=O)[nH]1 ; field requested: IC50
Ans: 1000

Source: patent US20050164976A1
